From: patent US11149033B2

Attribute: CC50
measurementProtocol: in vitro
assayConditions: CC50, beside the EC50 of c2

Use these answered entries as a reference point.
>  <compound>
Cc1cccc(C)c1/C=C/c1nnc(Cc2ccc(Br)cc2)o1

>  <CC50>
> 50 µM

$$$$
>  <compound>
Fc1ccc(/C=C/c2nnc(Cc3ccc(F)c(Cl)c3)o2)c(Cl)c1

>  <CC50>
> 50 µM

$$$$
>  <compound>
Fc1cccc(/C=C/c2nnc(Cc3cccc(Br)c3)o2)c1Cl

>  <CC50>
49.9 µM

$$$$
>  <compound>
Fc1ccc(/C=C/c2nnc(Cc3ccc(Cl)c(Cl)c3)o2)c(Cl)c1

>  <CC50>
> 50 µM

$$$$
>  <compound>
Fc1ccc(/C=C/c2nnc(Nc3ccc(Br)c(F)c3)o2)c(Cl)c1

>  <CC50>
> 50 µM

$$$$

Q) Give the measured CC50 of Cc1ccccc1/C=C/c1nnc(Cc2ccc(Br)cc2)o1 .
A) 8.53 µM

Q) Give the measured CC50 of FC(F)(F)c1cccc(/C=C/c2nnc(Cc3ccc(Br)cc3)o2)c1Cl .
A) > 50 µM

Q) Give the measured CC50 of Fc1ccc(/C=C/c2nnc(Cc3ccc(Br)cc3)o2)c(Cl)c1 .
A) > 50 µM

Q) Give the measured CC50 of Fc1ccc(/C=C/c2nnc(Cc3cccc4ccccc34)o2)c(Cl)c1 .
A) > 50 µM

Q) Give the measured CC50 of Fc1ccc(/C=C/c2nnc(Cc3cccc(Br)c3)o2)c(Cl)c1 .
A) > 50 µM

Q) Give the measured CC50 of CC(C)c1ccccc1CCc1nnc(Cc2cccc(Cl)c2)o1 .
A) 47.7 µM

Q) Give the measured CC50 of CC(C)c1ccccc1/C=C/c1nnc(C(C)c2ccccc2)o1 (stereo not shown) .
A) > 50 µM

Q) Give the measured CC50 of Brc1ccc(Cc2nnc(/C=C/c3ccccc3C3CCCCC3)o2)cc1 .
A) 32.5 µM

###

Attribute: pEC50
Tested on: A/California/07/2009 (H1N1)
measurementProtocol: Antiviral activity (drug efficacy evaluation by concentration) against A/California/07/2009 (H1N1)
Format: cell-based, A type influenza virus
assayConditions: Influenza A virus, H1N1; read-out: EC50
Would you please state pEC50, meaning minus log10 of the concentration in mol/L, as a bare number?

Use these answered entries as a reference point.
>  <compound>
Fc1ccccc1/C=C/c1nnc(Cc2cccc(Cl)c2)o1

>  <pEC50>
5.72

$$$$
>  <compound>
CC(C)c1ccccc1OCc1nnc(Cc2ccc(Br)cc2)o1

>  <pEC50>
4.35

$$$$
>  <compound>
C/C(=C\c1ccccc1C)c1nnc(Cc2ccc(Br)cc2)o1

>  <pEC50>
4.31

$$$$
>  <compound>
CC(C)c1ccccc1/C=C/c1nnc(Cc2ccc(F)c(Cl)c2)o1

>  <pEC50>
6.03

$$$$

Q) Give the measured pEC50 of Brc1ccc(Cc2nnc(/C=C/c3ccccc3)o2)cc1 .
A) 5.71

Q) Give the measured pEC50 of CC(C)c1ccccc1CCc1nnc(Cc2cccc(Br)c2)o1 .
A) 4.34

Q) Give the measured pEC50 of Brc1ccc(Nc2nnc(/C=C/c3ccccc3C3CCCCC3)o2)cc1 .
A) 4.44

Q) Give the measured pEC50 of Fc1ccc(/C=C/c2nnc(Cc3cccc(Br)c3)o2)c(Cl)c1 .
A) 6.00

Q) Give the measured pEC50 of Cc1ccccc1CC(C)c1nnc(Cc2ccc(Br)cc2)o1 (stereo not shown) .
A) 4.74
